- Tested on: KM12 colon
- ASSAY OVERVIEW: NCI-60 one-dose screen, 48 h
- DETAILS: 10 µM unless noted
About 83,000 compounds went through this panel and 20% of them were active in at least one assay; those are over-represented in the sample as a whole. The source made the active and inactive calls. Rule for the calls: active = growth percent below 10; inactive = the rest.
Use one of these outcomes when replying: y = active, n = inactive

Worked set:
Can you look up the reported call for `C#CCO[C@H]1CC[C@H](OCC#C)[C@@H]2[C@H]1[C@H]1C[C@@H]3[C@@]4(C)CCC[C@@](C)(C(=O)OC)[C@@H]4CC[C@@]23C=C1C(C)C` for me?
n

Can you look up the reported call for `CC(C)N(C(=S)SSC(=S)N(C(C)C)C(C)C)C(C)C` for me?
n

Can you look up the reported call for `Clc1cccc(CNc2c3ccccc3nc3ccccc23)c1` for me?
n

New cases:
Can you look up the reported call for `O=C(c1ccccc1)c1cccc(C(Br)Br)c1` for me?
n

Can you look up the reported call for O=C1CCCN1C(O)CCN(Cc1ccccc1)Cc1ccc(Cl)cc1 (stereo not given) for me?
n

Can you look up the reported call for `N/C(=N\O)c1ncc(-c2ccc(C(F)(F)F)cc2)c(NC2CCCCCC2)n1` for me?
y

Can you look up the reported call for `CS(=O)(=O)c1ccc(C(=O)N/N=C/c2ccccc2O)cc1` for me?
n

Can you look up the reported call for `Cc1c(C(=O)Nc2ccccc2F)sc2c(=O)[nH]cnc12` for me?
n

Can you look up the reported call for Cc1ccc(C(CN(C)C)C(=O)c2ccccc2)cc1 (stereo not given) for me?
n

Can you look up the reported call for `O=C1/C=C/[C@@H](O)[C@@H]2C[C@@H](O)C[C@H]2/C=C/CCC[C@H]([C@@H](O)CO)O1` for me?
n

* * *

- System: CCRF-CEM leukemia
- ASSAY OVERVIEW: NCI-60 one-dose screen, 48 h
- DETAILS: 10 µM unless noted
About 83,000 compounds went through this panel and 20% of them were active in at least one assay; those are over-represented in the sample as a whole. Calls of active or inactive are those of the source. How the source made its calls: active means growth percent below 10; inactive means the rest.
Use one of these outcomes when replying: active, inactive

Worked set:
Can you look up the reported call for `C=CCOc1ccc2c(C)cc(=O)oc2c1` for me?
inactive

Can you look up the reported call for CCCCCCCCOC(=O)C(C)OC(=O)OCCOCCOC(=O)OC(C)C(=O)OCCCCCCCC (centres undefined) for me?
inactive

New cases:
Can you look up the reported call for `Fc1ccc(-c2cnc3nonc3n2)c(F)c1` for me?
inactive

Can you look up the reported call for COc1cc2c(c(OC)c1O)C(=O)C(OC)C(c1ccc(O)c(O)c1)O2 (centres undefined) for me?
active

Can you look up the reported call for `N#CCCn1cnc2c(N)ncnc21` for me?
inactive

Can you look up the reported call for `CC1=C(O)C(=O)CC1` for me?
inactive

Can you look up the reported call for CC(C)CC1NC(=O)C(CC(C)C)N(CO)C1=O (centres undefined) for me?
inactive

Can you look up the reported call for `CS(=O)(=O)c1ccc(C(=O)N/N=C/c2cccc3ccccc23)cc1` for me?
inactive

Can you look up the reported call for `COc1ccc(-c2cc(C(=O)Nc3ccc(C)cc3)nc3[nH]c(=O)sc23)cc1` for me?
inactive
